Reference source for all entries: FireProtDB (doi:10.1016/0022-2836(82)90184-x)

B1: Tryptophan synthase alpha chain, P0A877 (parent)
chain: MERYESLFAQLKERKEGAFVPFVTLGDPGIEQSLKIIDTLIEAGADALELGIPFSDPLADGPTIQNATLRAFAAGVTPAQCFEMLALIRQKHPTIPIGLLMYANLVFNKGIDEFYAQCEKVGVDSVLVADVPVEESAPFRQAALRHNVAPIFICPPNADDDLLRQIASYGRGYTYLLSRAGVTGAENRAALPLNHLVAKLKEYNAAPPLQGFGISAPDQVKAAIDAGAAGAISGSAIVKIIEQHINEPEKMLAALKVFVQPMKAATRS

# Variants of: B1
# Test parameters: Escherichia coli (strain K12); pH 9; 25 °C; GdnHCl; CD; Tris-HCl 0.025 M; reversible: yes; structure 1WQ5; whole UniProt chain shown
Assay metric: unfolding free energy (kcal/mol)
I only need the number, in kcal/mol, no unit after it.

Record request: unfolding free energy value, item E49V 9.4

Record request: unfolding free energy value, item E49Q 8.5

Record request: unfolding free energy value, item E49Y 6.8

Record request: unfolding free energy value, item E49M 8.4

Record request: unfolding free energy value, item E49S 8
